Just for reference, ChEMBL document CHEMBL5308504 is where these values come from.

MEASURED_ON: Peregrin (Homo sapiens)
TEST_CONTEXT: Compound concentration 20.0 uM, Protein concentration 2.0 uM, Result type QC Liability
OUTCOME_MEASURE: ΔTm (°C)

> print(dat)
                               given.smiles  unit.of.measure  observed.measurement
1              Nc1ncnc2[nH]c(-c3ccccc3)nc12               °C                 -0.39
2  COc1cccc(-c2c(C)c(Cc3c(F)cccc3C(F)(F)F)c3n(c2=O)[C@@H]([C@@H](N)c2ccccc2)CS3)c1F               °C                  -4.1
3  COc1ccc(S(=O)(=O)N2CCOCC2)cc1Nc1ccc2c(n1)N(C1CCN(C)CC1)[C@H](C)C(=O)N2C               °C                  1.52
4  Cc1nccc(COC(=O)N2C[C@@H]3[C@@H](CNC(=O)c4ccc5[nH]nnc5c4)[C@@H]3C2)n1               °C                 -2.37
5  CN(C)C/C=C/C(=O)Nc1cccc(S(=O)(=O)N2CCC(NC(=O)c3n[nH]cc3NC(=O)c3c(Cl)cc(Cl)cc3Cl)CC2)c1               °C                 -0.81
6  C=CC(=O)Nc1cccc(C)c1Nc1ncc2cc(-c3c(Cl)c(OC)cc(OC)c3Cl)ccc2n1               °C                 -0.73
7  COc1cc(-c2cc3ncccc3c(OC[C@H]3CNC(=O)C3)n2)cc(OC)c1OC1CCOCC1               °C                 -1.09
8  CC(C)(C)C(=O)NCc1ccc(Cl)c(C(=O)Nc2ncc[nH]2)c1               °C                 -2.86
9  CC/C(=C(\c1ccccc1)c1ccc(OCCN(C)C)cc1)c1ccccc1               °C                 -3.71
